test: Drug excretion in human assessed as compound excreted into bile at 400 mg, po after 24 hrs by T-tube method
measurementType: dose excreted at 24 h (%)
One number for each entry, in %.

Request: I would be grateful if you could share the reported dose excreted at 24 h for O=C(O)c1cn(C2CC2)c2cc(N3CCNCC3)c(F)cc2c1=O .
Result: 0.5

* * *

experiment: Drug excretion in po dosed human assessed as compound excreted into bile after 24 hrs by T-tube method; type: ADME, organism-based; settings: read-out: Drug excretion
measurementType: dose excreted at 24 h (%)
One number for each entry, in %.

Request: GET /values?readout=dose excreted at 24 h&item= CCC(=O)C(CC(C)N(C)C)(c1ccccc1)c1ccccc1 (stereo unspecified)
Result: 0.06

* * *

assay: Drug excretion in iv dosed human assessed as compound excreted into bile after 20 hrs; format: ADME, organism-based; conditions: read-out: Drug excretion
measurementType: dose excreted at 20 h (%)
Give bare numbers, in %.

Request: State the recorded dose excreted at 20 h for this entry: CC[C@H]1OC(=O)[C@H](C)[C@@H](O[C@H]2C[C@@](C)(OC)[C@@H](O)[C@H](C)O2)[C@H](C)[C@@H](O[C@@H]2O[C@H](C)C[C@H](N(C)C)[C@H]2O)[C@](C)(O)C[C@@H](C)C(=O)[C@H](C)[C@@H](O)[C@]1(C)O
Result: 13

* * *

Would you kindly list CL for each of these compounds?
tested on: Rattus norvegicus; test: Total biliary clearance in iv dosed rat; format: ADME, organism-based, Bile; settings: in vivo
Phrase the answer as number then unit, nothing more needed.

Examples with answers:
1. CC[C@H](C)C(=O)O[C@H]1C[C@H](O)C=C2C=C[C@H](C)[C@H](CC[C@@H](O)C[C@@H](O)CC(=O)O)[C@H]21 [PRAVASTATIN]: 27.5 mL/min/kg
2. CN(Cc1cnc2nc(N)nc(N)c2n1)c1ccc(C(=O)N[C@@H](CCC(=O)O)C(=O)O)cc1 [METHOTREXATE]: 9.6 mL/min/kg
3. CO[C@@]1(NC(=O)C2SC(=C(C(N)=O)C(=O)O)S2)C(=O)N2C(C(=O)O)=C(CSc3nnnn3C)CS[C@@H]21 (some centres undefined) [CEFOTETAN]: 6.14 mL/min/kg

Request: Param readout= CL; system= Rattus norvegicus; entry= C=CC1=C(C(=O)O)N2C(=O)[C@@H](NC(=O)/C(=N\OCC(=O)O)c3csc(N)n3)[C@H]2SC1 [CEFIXIME] ; returns value.
Result: 1 mL/min/kg

* * *

experiment: Drug excretion in Wistar rat assessed as compound excreted into bile at 10 mg/kg, iv; type: ADME, organism-based; design: dose 10 mg/kg, route intravenous; settings: read-out: Drug excretion
measurementType: dose excreted (%)
Give bare numbers, in %.

Request: Endpoint output: dose excreted of CC[C@H]1OC(=O)[C@H](C)[C@@H](O[C@H]2C[C@@](C)(OC)[C@@H](O)[C@H](C)O2)[C@H](C)[C@@H](O[C@@H]2O[C@H](C)C[C@H](N(C)C)[C@H]2O)[C@](C)(O)C[C@@H](C)C(=O)[C@H](C)[C@@H](O)[C@]1(C)O . Value?
Result: 30

* * *

assay: Drug excretion in iv dosed human assessed as compound excreted into bile after 24 hrs by T-tube method; assay type: ADME, organism-based; conditions: read-out: Drug excretion
measurementType: dose excreted at 24 h

For orientation, consider the following solved cases.
1. CC[C@H](C)C(=O)O[C@H]1C[C@H](O)C=C2C=C[C@H](C)[C@H](CC[C@@H](O)C[C@@H](O)CC(=O)O)[C@H]21: 23%
2. CN(Cc1cnc2nc(N)nc(N)c2n1)c1ccc(C(=O)N[C@@H](CCC(=O)O)C(=O)O)cc1 [METHOTREXATE]: 10%

Request: Please report the recorded dose excreted at 24 h for COc1cccc2c1C(=O)c1c(O)c3c(c(O)c1C2=O)C[C@@](O)(C(=O)CO)C[C@@H]3O[C@H]1C[C@H](N)[C@H](O)[C@H](C)O1 .
Result: 14%

* * *

test: Drug excretion in human assessed as compound excreted into bile at 20 mg, iv after 24 hrs by T-tube method; format: ADME, organism-based; conditions: read-out: Drug excretion
measurementType: dose excreted at 24 h (%)
Give bare numbers, in %.

Request: For the molecule CCCCC(=O)N(Cc1ccc(-c2ccccc2-c2nnn[nH]2)cc1)[C@H](C(=O)O)C(C)C , what dose excreted at 24 h is on record?
Result: 88

* * *

experiment: Drug excretion in iv dosed human assessed as compound excreted into bile after 6 hrs; assay type: ADME, organism-based; conditions: read-out: Drug excretion
measurementType: dose excreted at 6 h (%)
Answers are plain numbers, in %.

Request: Dear colleague, I am looking for the recorded dose excreted at 6 h of the following molecule: Cn1nnnc1SCC1=C(C(=O)O)N2C(=O)[C@@H](NC(=O)[C@H](O)c3ccccc3)[C@H]2SC1
Result: 0.4

* * *

assay: Drug excretion in human assessed as compound excreted into bile at 1 gm, iv after 24 hrs by T-tube method; format: ADME, organism-based; conditions: read-out: Drug excretion
measurementType: dose excreted at 24 h (%)
One number for each entry, in %.

Request: Sample Cc1cc(O)c(C(=O)N[C@@H](C(=O)N[C@@H]2C(=O)N3C(C(=O)O)=C(CSc4nnnn4C)CS[C@H]23)c2ccc(O)cc2)cn1 [CEFPIRAMIDE] — what was its dose excreted at 24 h?
Result: 28

* * *

assay: Drug excretion in Sprague-Dawley rat assessed as compound excreted into bile at 5 mg/kg, iv; type: ADME, organism-based; design: dose 5 mg/kg, route intravenous; settings: read-out: Drug excretion
measurementType: dose excreted (%)
Answers are plain numbers, in %.

Request: dose excreted for COc1cccc2c1C(=O)c1c(O)c3c(c(O)c1C2=O)C[C@@](O)(C(=O)CO)C[C@@H]3O[C@H]1C[C@H](N)[C@H](O)[C@H](C)O1 ?
Result: 17

* * *

assay: Drug excretion in iv dosed human assessed as compound excreted into bile after 72 hrs by T-tube method; assay type: ADME, organism-based; details: read-out: Drug excretion
measurementType: dose excreted at 72 h (%)
Give bare numbers, in %.

Request: Which dose excreted at 72 h is listed for CC[C@]1(O)C[C@H]2CN(CCc3c([nH]c4ccccc34)[C@@](C(=O)OC)(c3cc4c(cc3OC)N(C=O)[C@H]3[C@@](O)(C(=O)OC)[C@H](OC(C)=O)[C@]5(CC)C=CCN6CC[C@]43[C@@H]65)C2)C1 ?
Result: 10

* * *

assay: Drug excretion in human assessed as compound excreted into bile at 200 mg, po after 24 hrs by T-tube method; format: ADME, organism-based; settings: read-out: Drug excretion
measurementType: dose excreted at 24 h
Just so you know, I need the unit written after the number.

Request: Record request: dose excreted at 24 h value, item C=CC1=C(C(=O)O)N2C(=O)[C@@H](NC(=O)/C(=N\OCC(=O)O)c3csc(N)n3)[C@H]2SC1
Result: 11%

* * *

test: Drug excretion in iv dosed human assessed as compound excreted into bile after 8 hrs by T-tube method; assay type: ADME, organism-based; details: read-out: Drug excretion
measurementType: dose excreted at 8 h (%)
One number for each entry, in %.

Request: # input molecule: O=C([O-])Cc1ccccc1Nc1c(Cl)cccc1Cl.[Na+] [DICLOFENAC SODIUM] ; wanted: its dose excreted at 8 h
Result: 1

* * *

system: Rattus norvegicus; assay: Unbound biliary clearance in iv dosed rat; assay type: ADME, organism-based, Bile; conditions: in vivo
measurementType: CL free (mL/min/kg)
Numbers only, in mL/min/kg.

Reference set, count: 3
1) CO[C@@]1(NC(=O)C2SC(=C(C(N)=O)C(=O)O)S2)C(=O)N2C(C(=O)O)=C(CSc3nnnn3C)CS[C@@H]21 (some centres undefined) [CEFOTETAN]: 8.771
2) CC[C@H](C)C(=O)O[C@H]1C[C@H](O)C=C2C=C[C@H](C)[C@H](CC[C@@H](O)C[C@@H](O)CC(=O)O)[C@H]21 [PRAVASTATIN]: 78.57
3) CN(Cc1cnc2nc(N)nc(N)c2n1)c1ccc(C(=O)N[C@@H](CCC(=O)O)C(=O)O)cc1 [METHOTREXATE]: 12.47

Could you now look at the following compound, please?
Request: Which measured CL free value corresponds to C=CC1=C(C(=O)O)N2C(=O)[C@@H](NC(=O)/C(=N\OCC(=O)O)c3csc(N)n3)[C@H]2SC1 [CEFIXIME] ?
Result: 7.143

* * *

assay: Drug excretion in iv dosed rat assessed as compound excreted into bile; assay type: ADME, organism-based; conditions: read-out: Drug excretion
measurementType: dose excreted (%)
Give bare numbers, in %.

Solved entries (count: 2):
1) C=CC1=C(C(=O)O)N2C(=O)[C@@H](NC(=O)/C(=N\OCC(=O)O)c3csc(N)n3)[C@H]2SC1: 41
2) Cc1nnc(SCC2=C(C(=O)O)N3C(=O)[C@@H](NC(=O)Cn4cnnn4)[C@H]3SC2)s1: 30

Provide dose excreted values for the following items, in order.
1. N=C(N)N1CCC[C@@H](CNC(=O)C[C@H](NS(=O)(=O)c2ccc3ccccc3c2)C(=O)N(CC(=O)O)C2CC2)C1 [NAPSAGATRAN ANHYDROUS]
2. CCN1CCN(C(=O)N[C@@H](C(=O)N[C@@H]2C(=O)N3C(C(=O)O)=C(CSc4nnnn4C)CS[C@H]23)c2ccc(O)cc2)C(=O)C1=O
3. CO[C@@]1(NC(=O)C2SC(=C(C(N)=O)C(=O)O)S2)C(=O)N2C(C(=O)O)=C(CSc3nnnn3C)CS[C@@H]21 (stereo not given in full)
4. CCC(=O)C(CC(C)N(C)C)(c1ccccc1)c1ccccc1 (stereo not given)
5. CC1=C(C(=O)O)N2C(=O)[C@@H](NC(=O)[C@H](N)c3ccccc3)[C@H]2SC1 [CEPHALEXIN ANHYDROUS]
6. CN(Cc1cnc2nc(N)nc(N)c2n1)c1ccc(C(=O)N[C@@H](CCC(=O)O)C(=O)O)cc1 [METHOTREXATE]
7. CC[C@H](C)C(=O)O[C@H]1C[C@H](O)C=C2C=C[C@H](C)[C@H](CC[C@@H](O)C[C@@H](O)CC(=O)O)[C@H]21
8. CNC(=C[N+](=O)[O-])NCCSCc1ccc(CN(C)C)o1

Result:
61
86
48
9
32
64
40
5
